System: HCC-2998 colon
Test: NCI-60 one-dose screen, 48 h (100 = growth as untreated, 0 = no growth, -100 = all killed)
Conditions: 10 µM
This is part of a sample that, as a whole, favours compounds with a hit. Of some 83,000 tested, about 20% had one in any assay.
reported endpoint: growth (%)
Record the value in %, omitting the unit from your answer.

Field growth (entry N#C/C(=C1C=C/C(=N\O)C(Cl)=C\1)c1ccccc1 ) reads 89.7

Field growth (entry O=C(/C(=C/c1ccccc1)CBr)c1ccccc1 ) reads 108

Field growth (entry S=c1[nH]nc(Cc2ccccc2)c(=S)[nH]1 ) reads 103

Field growth (entry Cc1cnc(/C=N\NC(N)=S)c2cccc(N)c12 ) reads -39.3

Field growth (entry COc1cc(C(C)(C)C)cc(OC)c1C(O)(c1c(OC)cc(C(C)(C)C)cc1OC)c1c(OC)cc(C(C)(C)C)cc1OC ) reads -91.9

Field growth (entry Cc1cc(NCCCN(C)C)c2ccc3c(ccc4c(NCCCN(C)C)cc(C)nc43)c2n1 ) reads -66.1

Field growth (entry CSc1ccc2c(c1)C(N1CCN(C)CC1)Cc1ccccc1S2 (stereo not drawn) ) reads -39.2

Field growth (entry BrC/C=C/C[P+](c1ccccc1)(c1ccccc1)c1ccccc1 ) reads 71.9

----------
Tested on: OVCAR-8 ovarian
Test: NCI-60 one-dose screen, 48 h
Conditions: 10 µM
Compounds without any hit were thinned out: in the full panel of roughly 83,000, 20% have a hit. Calls of active or inactive are those of the source. Rule for the calls: active = growth percent below 10; inactive = the rest.
Your reply should match one of these outcome classes. 1.0 = active, 0.0 = inactive

Lab log entry: BrC/C=C/C[P+](c1ccccc1)(c1ccccc1)c1ccccc1 — outcome as called in the assay?
0.0

Lab log entry: N#C/C(=C1C=C/C(=N\O)C(Cl)=C\1)c1ccccc1 — outcome as called in the assay?
0.0

Lab log entry: Cc1cc(NCCCN(C)C)c2ccc3c(ccc4c(NCCCN(C)C)cc(C)nc43)c2n1 — outcome as called in the assay?
1.0

Lab log entry: Cc1cnc(/C=N\NC(N)=S)c2cccc(N)c12 — outcome as called in the assay?
0.0

Lab log entry: S=c1[nH]nc(Cc2ccccc2)c(=S)[nH]1 — outcome as called in the assay?
0.0

Lab log entry: Nc1ccc2cc(Br)c3ccccc3c2c1 — outcome as called in the assay?
0.0

Lab log entry: CN(C)CCC(=O)c1c[nH]c2ccccc12 — outcome as called in the assay?
0.0

Lab log entry: O=C(/C(=C/c1ccccc1)CBr)c1ccccc1 — outcome as called in the assay?
0.0

Lab log entry: CSc1ccc2c(c1)C(N1CCN(C)CC1)Cc1ccccc1S2 (centres undefined) — outcome as called in the assay?
0.0

----------
Hi there, I'd appreciate the recorded growth for every entry that follows.
Tested on: CAKI-1 renal
Assay: NCI-60 one-dose screen, 48 h (100 = growth as untreated, 0 = no growth, -100 = all killed)
Conditions: 10 µM
Compounds without any hit were thinned out: in the full panel of roughly 83,000, 20% have a hit. Starred links: 1 amine or outer side, 2 acyl side, 3 side chain; linkers in the order of their positions; H or OH if unused. Positions of bridges follow the written chain, without caps; N, C: chain ends. Non-standard residues stand in square brackets, D forms with d. Residues, ends and D or L forms follow the SMILES beside them. Chains are numbered I, II in the order given. Actinocin(9to1) = Cc1c2oc3c(C)ccc(C(=O)[*:1])c3nc-2c(C(=O)[*:2])c(N)c1=O; aThr = C[C@H](O)[C@H](N)C(=O)O; NMeV = CN[C@H](C(=O)O)C(C)C; Sar = CNCC(=O)O
Record the value in %, omitting the unit from your answer.

Field growth (entry CCCCCCCCCCCCCCCCCN ) reads 91.1

Field growth (entry CN1CCN(c2ccc3nc(-c4ccc5nc(-c6ccc(O)cc6)[nH]c5c4)[nH]c3c2)CC1 ) reads 92.6

Field growth (entry N#C/C(=C1C=C/C(=N\O)C(Cl)=C\1)c1ccccc1 ) reads 5.29

Field growth (entry Cc1c2oc3c(C)ccc(C(=O)N[C@@H]4C(=O)N[C@H](C(C)C)C(=O)N5CCC[C@H]5C(=O)N(C)CC(=O)N(C)[C@@H](C(C)C)C(=O)O[C@H]4C)c3nc-2c(C(=O)N[C@@H]2C(=O)N[C@H](C(C)C)C(=O)N3CCC[C@H]3C(=O)N(C)CC(=O)N(C)[C@@H](C(C)C)C(=O)O[C@H]2C)c(N)c1=O (I: [aThr][dV]P[Sar][NMeV] / II: [aThr][dV]P[Sar][NMeV]; ester I:1-I:C, II:1-II:C; linker I:N-II:N via Actinocin(9to1)) ) reads -13.7
